- Test summary: amyloid nucleation score (Sup35N fusion, yeast selection) (log enrichment); library NNK2; higher = more nucleation; inactive = no reads after selection;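 also: zero at mode of non-aggregating sequences after 7 days selection at 30°C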
amyloid nucleation score values by entry
Answer with a bare number; do not write a unit.

Sequence entry: TLLVKSKDYRNANSG
amyloid nucleation score: 0.185

Measured amyloid nucleation score of `RYVTKGLCLL` : 1.16

Measured amyloid nucleation score of `TTLVSSGYKYFCDVFTGVNA` : -1.45

* * *

- Test summary: amyloid nucleation score (Sup35N fusion, yeast selection) (log enrichment); library NNK2; higher = more nucleation; inactive = no reads after selection
Outcome measure: amyloid nucleation score

Sequence entry: NDNFLCSAIVFCMAVFRFGW
Outcome measure: amyloid nucleation score
Result: inactive
//
Sequence entry: ILIKIKRWSFRFPFGFGKLD
Outcome measure: amyloid nucleation score
Result: inactive
//
Sequence entry: NALVVLDMFLTIRSSVKGFI
Outcome measure: amyloid nucleation score
Result: inactive
//
Sequence entry: SLSTHIFLSSGLSLTFKKRS
Outcome measure: amyloid nucleation score
Result: inactive
